Just for reference, patent US20240417406A1 is where these values come from.

Catalogue of IC50 values
Tested on: human PDHK2 (hPDHK2) (Homo sapiens (Human))
Assay remarks: Inhibitory action of PDHK2 activity (PDH/hPDHK2 complex, residual PDH activity by NADH absorbance at 340 nm)
Assay type: biochemical
Assay setup: FLAG-tagged recombinant hPDHK2 with porcine heart PDH complex; PDHK reaction 45 min at room temperature
Description: In the case of human PDHK2 (hPDHK2, NCBI Reference Database Accession number NM_002611.4), modified hPDHK2 cDNA wherein FLAG-Tag sequence was added to the N terminal of hPDHK2 cDNA clone (pReceiver-M01/PDK2-GeneCopoeia) as the base was prepared by polymerase chain reaction (PCR) and ligated to the NdeI/EcoRI site of pET-17b vector (Merck KGaA, Catalog Number 69663-3). […] The absorbance of each well at 340 nm was measured using a microplate reader to detect NADH produced by the PDH reaction. […]
Measured property: IC50 (nM)

C[C@H]1Cc2nn(C(F)F)cc2-c2onc([C@@](C)(O)C(F)(F)F)c21 (racemic) [Example 22] | 22.4
C[C@H]1Cn2nc(N3CC4CC(C3)C4(F)F)cc2-c2cnc([C@@](C)(O)C(F)(F)F)n21 [Example 79] | 35.2
C[C@H]1Cn2nc(OCC34CCC(C#N)(CC3)CC4)cc2-c2cnc([C@@](C)(O)C(F)(F)F)n21 [Example 89] | 37.7
Cc1nnc2n1C[C@H](C)c1c([C@@](C)(O)C(F)(F)F)noc1-2 [Example 6] | 11.7
C[C@H]1Cc2c(cnn2-c2ccccc2)-c2cnc(C(C)(O)C(F)(F)F)n21 (stereo in doubt) [Example 73] | 15.7
C[C@H]1Cc2nn(C3CC3)cc2-c2onc([C@@](C)(O)C(F)(F)F)c21 [Example 19] | 13.8
C[C@H]1Cn2c(nnc2C(C)(C)F)-c2onc([C@@](C)(O)C(F)(F)F)c21 [Example 4] | 10.9
C[C@H]1Cc2c(cnn2CCC(C)(C)O)-c2onc([C@@](C)(O)C(F)(F)F)c21 [Example 40] | 5.8

---

Tested on: human PDHK2 (hPDHK2) (Homo sapiens (Human), UniProt Q15119)
Assay remarks: Inhibitory action of PDHK2 activity (PDH/hPDHK2 complex, residual PDH activity by NADH absorbance at 340 nm)
Assay setup: FLAG-tagged recombinant hPDHK2 with porcine heart PDH complex; PDHK reaction 45 min at room temperature
pIC50: −log10 of the molar value.
Catalogue of pIC50 values
Measured property: pIC50

C[C@H]1Cn2nccc2-c2onc([C@@](C)(O)C(F)(F)F)c21 [Example 60] | 8.17
C[C@H]1Cc2c(cnn2CC(C)(C)O)-c2onc([C@@](C)(O)C(F)(F)F)c21 (racemic) | 7.84
C[C@H]1Cc2[nH]ncc2-c2onc([C@@](C)(O)C(F)(F)F)c21 (racemic) [Example 20] | 7.65
C[C@H]1Cn2nc(OCC(C)(C)O)cc2-c2onc([C@@](C)(O)C(F)(F)F)c21 (racemic) [Example 14] | 7.84
C[C@H]1Cn2nc(C34CC(C#N)(C3)C4)cc2-c2cnc([C@@](C)(O)C(F)(F)F)n21 | 7.91
C[C@H]1Cn2nc(C34CCC(C(C)(C)O)(CC3)CC4)cc2-c2cnc([C@@](C)(O)C(F)(F)F)n21 | 8.00
C[C@H]1Cc2c(cnn2C2CC2)-c2onc([C@@](C)(O)C(F)(F)F)c21 (racemic) | 7.90
C[C@H]1Cn2nc(N3C[C@H]4C[C@@H]3CO4)cc2-c2cnc([C@@](C)(O)C(F)(F)F)n21 | 7.47
C[C@H]1Cc2c(cnn2C)-c2onc([C@@](C)(O)C(F)(F)F)c21 (racemic) | 7.60
C[C@H]1Cn2nc(OCCF)cc2-c2cnc([C@@](C)(O)C(F)(F)F)n21 | 7.86
C[C@H]1Cn2nc(C34CCC(C#N)(CC3)CO4)cc2-c2cnc([C@@](C)(O)C(F)(F)F)n21 | 7.48
C[C@H]1Cn2nc(C34CCC(CO)(CC3)CO4)cc2-c2cnc([C@@](C)(O)C(F)(F)F)n21 | 7.31
C[C@@H]1Cc2nn(CC#N)cc2-c2onc([C@](C)(O)C(F)(F)F)c21 | 7.71
C[C@H]1Cn2nc(C34CCC(C#N)(CC3)CC4)cc2-c2cnnc([C@@](C)(O)C(F)(F)F)c21 (racemic) | 7.61
C[C@H]1Cn2nc(C3CCOCC3)cc2-c2onc([C@@](C)(O)C(F)(F)F)c21 (racemic) [Example 52] | 7.82
C[C@H]1Cc2c(cnn2C(F)F)-c2onc([C@@](C)(O)C(F)(F)F)c21 (racemic) | 7.70
C[C@H]1Cn2c(nnc2C(C)(F)F)-c2onc([C@@](C)(O)C(F)(F)F)c21 | 7.69
C[C@H]1Cn2nc(O[C@H]3CC[C@](C)(O)CC3)cc2-c2onc([C@@](C)(O)C(F)(F)F)c21 (racemic) [Example 37] | 7.76
C[C@H]1Cn2nc(N3C[C@H]4COC[C@H]4C3)cc2-c2cnc([C@@](C)(O)C(F)(F)F)n21 | 7.36
C[C@H]1Cc2c(cnn2C2CC(C#N)C2)-c2onc([C@@](C)(O)C(F)(F)F)c21 (stereo in doubt) [Example 29] | 7.63
